Tested on: Plutella xylostella
Test: whole plant or invertebrate
Assay type: in vivo
Conditions: 500 ppm; 2nd-instar larvae, leaf immersion feeding
reported endpoint: Plutella xylostella Mortality (%) 500 ppm
Report the value in % with no unit label.

*Q* Would you mind telling me what Plutella xylostella Mortality (%) 500 ppm value was observed for COC(=O)CC1(C(=O)C(F)(F)F)Nc2c([S+]([O-])C(F)(F)F)c(C#N)nn2-c2ncc(C(F)(F)F)cc21 (stereo not drawn) [a-28] ?
*A* 100

* * *

Tested on: Spodoptera exigua
Test: whole plant or invertebrate
Type: in vivo
Conditions: 500 ppm; 2nd-instar larvae, leaf immersion feeding
reported endpoint: Spodoptera exigua Mortality (%)
Report the value in % with no unit label.

# example entries with known answers
>>> observed_value("COC(=O)C1(CC(=O)OCC(F)F)Nc2c([S+]([O-])C(F)(F)F)c(C#N)nn2-c2c(C(F)(F)F)ccc(Cl)c21 (stereo not shown)")
100
>>> observed_value("COC(=O)CC1(C#N)Nc2c([S+]([O-])C(F)(F)F)c(C#N)nn2-c2c(Cl)cc(C(F)(F)F)cc21 (stereo not shown)")
90
>>> observed_value("N#CCC1(Cl)Nc2c([S+]([O-])C(F)(F)F)c(C#N)nn2-c2cncc(Cl)c21 (stereo not shown)")
85
>>> observed_value("CC=CC1Nc2c([S+]([O-])C(F)(F)F)c(C#N)nn2-c2cncc(Cl)c21 (stereo not shown)")
89
>>> observed_value("N#CCC1(C(=O)C(F)(F)F)Nc2c([S+]([O-])C(F)(F)F)c(C#N)nn2-c2cncc(Cl)c21 (stereo not shown)")
85

*Q* Would you mind telling me what Spodoptera exigua Mortality (%) value was observed for COC(=O)C(C)C1Nc2c([S+]([O-])C(F)(F)F)c(C#N)nn2-c2cncc(Cl)c21 (stereo not shown) ?
*A* 91

*Q* Would you mind telling me what Spodoptera exigua Mortality (%) value was observed for COC(=O)CC1(C(=O)C(F)(F)F)Nc2c([S+]([O-])C(F)(F)F)c(C#N)nn2-c2cncc(Cl)c21 (stereo not shown) ?
*A* 99

*Q* Would you mind telling me what Spodoptera exigua Mortality (%) value was observed for N#CCC1Nc2c([S+]([O-])C(F)(F)F)c(C#N)nn2-c2cncc(Cl)c21 (stereo not shown) ?
*A* 85

* * *

# Lookup of reported Toxicity determination Apis cernan Mortality (%) keyed by entry
Tested on: Apis cernan
Assay: Toxicity test on adult worker bees of Apis cernan, small beaker method
Type: in vivo
Details: 500 ppm, 48 hours
Report the value in % with no unit label.

# example entries with known answers
>>> observed_value("C=CC1(CC(F)(F)F)Nc2cc(C#N)nn2-c2c(Cl)cc(C(F)(F)F)cc21 (stereo not shown)")
10
>>> observed_value("C=CC1(C(F)(F)F)Nc2cc(C#N)nn2-c2c(Cl)cc(C(F)(F)F)cc21 (stereo not shown)")
10

Please turn your attention to the following entry.
*Q* Would you mind telling me what Toxicity determination Apis cernan Mortality (%) value was observed for CC(=O)c1nn2c(c1[S+](C)[O-])NC(CC#N)(C(=O)O)c1cc(C(F)(F)F)cc(Cl)c1-2 (stereo not shown) ?
*A* 4

* * *

Test system: Plutella xylostella
Assay: whole plant or invertebrate
Type: in vivo
Conditions: 500 ppm; 2nd-instar larvae, leaf immersion feeding
reported endpoint: Plutella xylostella Mortality (%)
Report the value in % with no unit label.

# example entries with known answers
>>> observed_value("COC(=O)CC1(C(=O)OC)Nc2c(C#N)c(C(F)(F)F)nn2-c2cncc(Cl)c21 (stereo not drawn) [b-136]")
100
>>> observed_value("COC(=O)C(C)C1Nc2c(OC(F)(F)F)c(C#N)nn2-c2c(Cl)cc(C(F)(F)F)cc21 (stereo not drawn) [d-122]")
91
>>> observed_value("N#Cc1nn2c(c1[S+]([O-])C(F)(F)F)NC(Cc1ccccc1)(C(=O)C(F)(F)F)c1c(Cl)cc(C(F)(F)F)cc1-2 (stereo not drawn) [c-36]")
92
>>> observed_value("COC(=O)CC1(C(=O)OC)Nc2c(C#N)c(C(F)(F)F)nn2-c2cc(C(F)(F)F)cc(Cl)c21 (stereo not drawn) [c-4]")
97

*Q* Would you mind telling me what Plutella xylostella Mortality (%) value was observed for COC(=O)CC1Nc2c(OC(F)(F)F)c(C#N)nn2-c2cncc(Cl)c21 (stereo not drawn) [b-111] ?
*A* 100

*Q* Would you mind telling me what Plutella xylostella Mortality (%) value was observed for COC(=O)CC1(C(=O)OC)Nc2c([S+]([O-])C(F)(F)F)c(C#N)nn2-c2ccc(C(F)(F)F)c(Cl)c21 (stereo not drawn) [e-7] ?
*A* 100

*Q* Would you mind telling me what Plutella xylostella Mortality (%) value was observed for CNC(=O)CC1Nc2c(OC(F)(F)F)c(C#N)nn2-c2cncc(Cl)c21 (stereo not drawn) [b-123] ?
*A* 99

*Q* Would you mind telling me what Plutella xylostella Mortality (%) value was observed for [O-][S+](c1c(C(F)(F)F)nn2c1NC(Br)c1cc(C(F)(F)F)cc(Cl)c1-2)C(F)(F)F (stereo not drawn) [d-114] ?
*A* 100

*Q* Would you mind telling me what Plutella xylostella Mortality (%) value was observed for CC=CC1Nc2c([S+]([O-])C(F)(F)F)c(C(F)(F)F)nn2-c2c(Cl)cc(C(F)(F)F)cc21 (stereo not drawn) [d-119] ?
*A* 89
